# target_of_assay: M-phase inducer phosphatase 2 (Homo sapiens, UniProt P30305)
# Sequence (P30305 whole entry): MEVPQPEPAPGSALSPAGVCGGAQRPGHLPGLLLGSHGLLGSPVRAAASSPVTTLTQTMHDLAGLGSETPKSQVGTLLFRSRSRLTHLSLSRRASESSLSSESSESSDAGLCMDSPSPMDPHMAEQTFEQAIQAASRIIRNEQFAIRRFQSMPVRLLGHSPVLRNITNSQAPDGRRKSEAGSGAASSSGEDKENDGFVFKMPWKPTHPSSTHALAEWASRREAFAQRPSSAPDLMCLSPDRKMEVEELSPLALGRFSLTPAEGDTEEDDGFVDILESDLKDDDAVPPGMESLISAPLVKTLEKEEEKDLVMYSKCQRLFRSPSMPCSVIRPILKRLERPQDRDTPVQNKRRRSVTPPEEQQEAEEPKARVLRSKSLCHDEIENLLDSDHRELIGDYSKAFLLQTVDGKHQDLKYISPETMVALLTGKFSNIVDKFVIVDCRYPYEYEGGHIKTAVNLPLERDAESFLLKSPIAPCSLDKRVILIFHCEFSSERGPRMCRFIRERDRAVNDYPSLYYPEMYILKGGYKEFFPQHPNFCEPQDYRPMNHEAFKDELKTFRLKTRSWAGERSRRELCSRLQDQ
# assay_method_text: Cdc25B phosphatase inhibitors with catalase present, dose response, biochemical, probe assessment (AID 668)
Parameter IC50: see the listing below.
assay_metric: IC50

INSERT INTO assay_data (molecule, target_of_assay, reported_value) VALUES
  ('N#Cc1c(N2CCCC2)nc(N)c2c(N)nc(N3CCCC3)cc12', 'M-phase inducer phosphatase 2 (Homo sapiens, UniProt P30305)', '> 50 µM'),
  ('O=C(O)C1Nc2c(O)cccc2C2C=CCC12 (stereo unspecified)', 'M-phase inducer phosphatase 2 (Homo sapiens, UniProt P30305)', '11 µM'),
  ('O=C1Cc2ccccc2C(=O)N1CCc1ccccc1', 'M-phase inducer phosphatase 2 (Homo sapiens, UniProt P30305)', '48.9 µM'),
  ('Nc1cccc2cnccc12', 'M-phase inducer phosphatase 2 (Homo sapiens, UniProt P30305)', '> 50 µM'),
  ('CCOc1ccc2noc3c2c1C(=O)c1ccccc1-3', 'M-phase inducer phosphatase 2 (Homo sapiens, UniProt P30305)', '> 50 µM'),
  ('O=C(NC1(O)C(=O)c2ccccc2C1=O)c1ccccc1', 'M-phase inducer phosphatase 2 (Homo sapiens, UniProt P30305)', '> 50 µM'),
  ('O=C1C=Cc2ccccc2C1=O [1,2-dihydronaphthalene-1,2-dione]', 'M-phase inducer phosphatase 2 (Homo sapiens, UniProt P30305)', '25.4 µM'),
  ('Cc1ccc2c(c1)C1C=CCC1C(C(=O)O)N2 (stereo unspecified)', 'M-phase inducer phosphatase 2 (Homo sapiens, UniProt P30305)', '7.35 µM'),
  ('COc1cccc2c1NC(C(=O)O)C1CC=CC21 (stereo unspecified)', 'M-phase inducer phosphatase 2 (Homo sapiens, UniProt P30305)', '6.18 µM'),
  ('O=C(Nc1ccc2nc(-c3ccco3)c(-c3ccco3)nc2c1)N1CCCCCC1', 'M-phase inducer phosphatase 2 (Homo sapiens, UniProt P30305)', '22.4 µM'),
  ('[O-]/[N+](=C\c1ccncc1)c1ccccc1', 'M-phase inducer phosphatase 2 (Homo sapiens, UniProt P30305)', '> 50 µM');

###

# target_of_assay: M-phase inducer phosphatase 2 (Homo sapiens, UniProt P30305)
# assay_method_text: Cdc25B phosphatase inhibitors with catalase present, dose response, biochemical, probe assessment (AID 668)
assay_metric: IC50 (µM)

INSERT INTO assay_data (compound, unit_symbol, lt_gt_eq, reported_value) VALUES
  ('CCn1nc(-c2ccccc2)nc2c(=O)n(C)c(=O)nc1-2', 'µM', '=', 20),
  ('O=C(OC1CCCCC1)c1ccc2c(c1)C1C=CCC1C(C(=O)O)N2 (stereo not drawn) [SMR000019385]', 'µM', '=', 3.8),
  ('CCOC(=O)C(C(=O)OCC)c1cc(Br)c2noc3c2c1C(=O)c1ccccc1-3 [MLS000038842]', 'µM', '>', 50),
  ('COc1ccc(Br)cc1C=c1sc2nc(-c3ccco3)nn2c1=O', 'µM', '=', 4.2),
  ('Cc1ccccc1Nc1cc2ccccc2c(O)n1', 'µM', '=', 45),
  ('Cn1ncnc2c(=O)n(C)c(=O)nc1-2', 'µM', '=', 23),
  ('Oc1nc(Nc2ccccc2)cc2ccccc12 [MLS000043701]', 'µM', '=', 45.8),
  ('N#Cc1c(N)sc(=S)c2c1CCN(Cc1ccccc1)C2', 'µM', '=', 14.1);

###

Recorded pIC50 by entry
# target_of_assay: M-phase inducer phosphatase 2 (Homo sapiens, UniProt P30305)
# assay_method_text: Cdc25B phosphatase inhibitors with catalase present, dose response, biochemical, probe assessment (AID 668)
pIC50: −log10 of the molar value.
assay_metric: pIC50

INSERT INTO measurements (compound, reported_value) VALUES
  ('Cc1ccc2c(c1C)NC(C(=O)O)C1CC=CC21 (stereo unspecified)', 5.15),
  ('[O-]/[N+](=C\c1ccc(OC(F)F)cc1)c1ccccc1', '< 4.30'),
  ('COc1ccc2noc3c2c1C(=O)c1ccccc1-3', '< 4.30'),
  ('CC(=O)Nc1cc(OC(C)=O)c2nonc2c1OC(C)=O', '< 4.30'),
  ('CCn1nc(-c2cccs2)nc2c(=O)n(C)c(=O)nc1-2', '< 4.30'),
  ('Cc1c(N=c2c(=O)c3ccccc3c2=O)c(=O)n(-c2ccccc2)n1C', '< 4.30');

Each recorded value in this set is attributed to BindingDB's records for doi:10.7270/Q2X928QK.
